# Species on record: Rattus norvegicus
# method-summary: DrugMatrix - Regimen: Daily Repeat
# Type: toxicity, organism-based, Sprague-Dawley
# Set-up: regimen Daily Repeat, gender Male, age 6-8 weeks
# details: in vivo, po, 0 mg/kg, 72 h, tissue Blood, route oral GAVAGE, dose level Control, time 3 day, vehicle .5 % CMC
Entries whose MONOCYTE is below 1% take 1 (yes); entries at or above 1% take 0 (no).

compound	category
COc1cc(OC)c(C(=O)CCCN2CCCC2)c(OC)c1	1 (yes)
C[C@@H]1O[C@@H](O[C@H]2C[C@@H](O)[C@]3(CO)[C@H]4[C@H](O)C[C@]5(C)[C@@H](C6=CC(=O)OC6)CC[C@]5(O)[C@@H]4CC[C@]3(O)C2)[C@H](O)[C@H](O)[C@H]1O	1 (yes)
CN1CCN(C2=Nc3cc(Cl)ccc3Nc3ccccc32)CC1	0 (no)
CN(C)C(=O)C(CCN1CCC(O)(c2ccc(Cl)cc2)CC1)(c1ccccc1)c1ccccc1 [LOPERAMIDE]	0 (no)
C[C@@](Cc1ccc(O)c(O)c1)(NN)C(=O)O.O	1 (yes)
C[C@]12CC[C@@H]3c4ccc(O)cc4CC[C@H]3[C@@H]1C[C@@H](O)[C@@H]2O	0 (no)
COc1ccccc1[N+](=O)[O-]	0 (no)
CCCNC(=O)NS(=O)(=O)c1ccc(Cl)cc1 [CHLORPROPAMIDE]	0 (no)

====

MEAN CORPUSCULAR HEMOGLOBIN CONCENTRATION by entry:
# Species: Rattus norvegicus
# method-summary: DrugMatrix - Regimen: Daily Repeat
# Assay type: toxicity, organism-based, Sprague-Dawley
# Parameters: regimen Daily Repeat, gender Male, age 6-8 weeks
# details: in vivo, iv, 0 mg/kg, 120 h, tissue Blood, dose level Control, time 5 day, vehicle 100 % SALINE
reported-metric: MEAN CORPUSCULAR HEMOGLOBIN CONCENTRATION (G/DL)

compound	readout-value
C[N+](C)(C)CCOC(=O)CCC(=O)OCC[N+](C)(C)C.[Cl-].[Cl-] [SUCCINYLCHOLINE CHLORIDE]	36.83
O=C(O)P(=O)(O)O	37.1
N=C(N)c1ccc(OCCCCCOc2ccc(C(=N)N)cc2)cc1	36.83
O=c1[nH]c(=O)n([C@H]2C[C@H](O)[C@@H](CO)O2)cc1F	40.07
COc1cccc2c1C(=O)c1c(O)c3c(c(O)c1C2=O)C[C@@](O)(C(C)=O)C[C@@H]3O[C@H]1C[C@H](N)[C@H](O)[C@H](C)O1	38.5

====

# Species: Rattus norvegicus
# method-summary: DrugMatrix - Regimen: Daily Repeat
# Format: toxicity, organism-based, Sprague-Dawley
# Parameters: regimen Daily Repeat, gender Male, age 6-8 weeks
# details: in vivo, po, 0 mg/kg, 72 h, tissue Blood, route oral GAVAGE, dose level Control, time 3 day, vehicle 100 % WATER
reported-metric: MEAN CORPUSCULAR VOLUME (fL)

molecule	readout-value
CN(C)CCC=C1c2ccccc2CCc2ccccc21	64.85
CN(C)C(=O)Oc1cccc([N+](C)(C)C)c1.[Br-] [NEOSTIGMINE BROMIDE]	62.53
NC(=O)c1cccnc1 [NIACINAMIDE]	64.8
CNC1=Nc2ccc(Cl)cc2C(c2ccccc2)=[N+]([O-])C1 [CHLORDIAZEPOXIDE]	63.7
CCCC(C)C1(CC)C(=O)NC(=O)NC1=O (stereo not given)	62.53
CCN(CC)CCOC(=O)C1(C2CCCCC2)CCCCC1	60.52
O=c1[nH]c(=O)n(C2CCCO2)cc1F (stereo not given)	62.05
NC12CC3CC(CC(C3)C1)C2	64.85
CCN(C(C)=O)c1cccc(-c2ccnc3c(C#N)cnn23)c1	64.85
C#Cc1cccc(Nc2ncnc3cc(OCCOC)c(OCCOC)cc23)c1	70.05

====

# Species: Rattus norvegicus
# method-summary: DrugMatrix - Regimen: Daily Repeat
# Type: toxicity, organism-based, Sprague-Dawley
# Parameters: regimen Daily Repeat, gender Male, age 6-8 weeks
# details: in vivo, ip, 10 mg/kg, 120 h, tissue Blood, route intraperitoneal, dose level High, time 5 day, vehicle 100 % SALINE

sequence-code	ABSOLUTE BASOPHIL
COBALTOUS CHLORIDE	46 cells/µL

====

# Organism: Rattus norvegicus
# method-summary: DrugMatrix - Regimen: Daily Repeat
# Assay type: toxicity, organism-based, Sprague-Dawley
# Set-up: regimen Daily Repeat, gender Male, age 6-8 weeks
# details: in vivo, po, 0 mg/kg, 120 h, tissue Plasma, route oral GAVAGE, dose level Control, time 5 day, vehicle 100 % WATER
Reported values of CARBON DIOXIDE for individual entries

compound	CARBON DIOXIDE / mmol/L
NC(=O)c1cccnc1 [NIACINAMIDE]	25
CN(C)C(=O)Oc1cccc([N+](C)(C)C)c1.[Br-] [NEOSTIGMINE BROMIDE]	31
O=c1[nH]c(=O)n(C2CCCO2)cc1F (stereo unspecified)	26.5
CN(C)CCC=C1c2ccccc2CCc2ccccc21	33.83
CCN(C(C)=O)c1cccc(-c2ccnc3c(C#N)cnn23)c1	33.83
CCCC(C)C1(CC)C(=O)NC(=O)NC1=O (stereo unspecified)	31

====

# Organism: Rattus norvegicus
# method-summary: DrugMatrix - Regimen: Daily Repeat
# Type: toxicity, organism-based, Sprague-Dawley
# Design: regimen Daily Repeat, gender Male, age 6-8 weeks
# details: in vivo, po, 0 mg/kg, 120 h, tissue Plasma, route oral GAVAGE, dose level Control, time 5 day, vehicle .5 % CMC
reported-metric: CARBON DIOXIDE (mmol/L)

molecule	result-unit	readout-value
NC(=O)N1c2ccccc2CC(=O)c2ccccc21 [OXCARBAZEPINE]	mmol/L	30.33
CCOc1nc2cccc(C(=O)O)c2n1Cc1ccc(-c2ccccc2-c2nnn[nH]2)cc1	mmol/L	26.33
CCCCC1=NC2(CCCC2)C(=O)N1Cc1ccc(-c2ccccc2-c2nnn[nH]2)cc1	mmol/L	24.33
C[C@@H]1O[C@@H](O[C@H]2C[C@@H](O)[C@]3(CO)[C@H]4[C@H](O)C[C@]5(C)[C@@H](C6=CC(=O)OC6)CC[C@]5(O)[C@@H]4CC[C@]3(O)C2)[C@H](O)[C@H](O)[C@H]1O	mmol/L	24.67

====

Reported TOTAL PROTEIN values for a set of compounds
# Species: Rattus norvegicus
# method-summary: DrugMatrix - Regimen: Daily Repeat
# Format: toxicity, organism-based, Sprague-Dawley
# Parameters: regimen Daily Repeat, gender Male, age 6-8 weeks
# details: in vivo, po, 0 mg/kg, 72 h, tissue Plasma, route oral GAVAGE, dose level Control, time 3 day, vehicle .5 % CMC

compound	TOTAL PROTEIN [G/DL]
CCn1cc(C(=O)O)c(=O)c2cc(F)c(N3CCNC(C)C3)c(F)c21 (stereo not drawn)	5.9
CN1C(=O)CN=C(c2ccccc2)c2cc([N+](=O)[O-])ccc21	6.85
CN(C)C(=O)C(CCN1CCC(O)(c2ccc(Cl)cc2)CC1)(c1ccccc1)c1ccccc1 [LOPERAMIDE]	5.75
C[C@@H]1O[C@@H](O[C@H]2C[C@@H](O)[C@]3(CO)[C@H]4[C@H](O)C[C@]5(C)[C@@H](C6=CC(=O)OC6)CC[C@]5(O)[C@@H]4CC[C@]3(O)C2)[C@H](O)[C@H](O)[C@H]1O	5.92
C[C@H]1[C@H](NC(=O)/C(=N\OC(C)(C)C(=O)O)c2csc(N)n2)C(=O)N1S(=O)(=O)O	5.98
CN1CCN(C2=Nc3cc(Cl)ccc3Nc3ccccc32)CC1	6.87
C#C[C@]1(O)CC[C@H]2[C@@H]3CCC4=CC(=O)CC[C@]4(C)[C@H]3CC[C@@]21C	6.8
CCC1=C(C)CN(C(=O)NCCc2ccc(S(=O)(=O)NC(=O)N[C@H]3CC[C@H](C)CC3)cc2)C1=O [GLIMEPIRIDE]	5.75

====

# Species on record: Rattus norvegicus
# method-summary: DrugMatrix - Regimen: Daily Repeat
# Assay type: toxicity, organism-based, Sprague-Dawley
# Set-up: regimen Daily Repeat, gender Male, age 6-8 weeks
# details: in vivo, iv, 0 mg/kg, 120 h, tissue Plasma, dose level Control, time 5 day, vehicle 100 % SALINE

compound	CREATININE, mg/dL
O=c1[nH]c(=O)n([C@H]2C[C@H](O)[C@@H](CO)O2)cc1F [FLOXURIDINE]	0.17
N=C(N)c1ccc(OCCCCCOc2ccc(C(=N)N)cc2)cc1 [PENTAMIDINE]	0.22
O=C(O)P(=O)(O)O [FOSCARNET]	0.23
C[N+](C)(C)CCOC(=O)CCC(=O)OCC[N+](C)(C)C.[Cl-].[Cl-] [SUCCINYLCHOLINE CHLORIDE]	0.22
COc1cccc2c1C(=O)c1c(O)c3c(c(O)c1C2=O)C[C@@](O)(C(C)=O)C[C@@H]3O[C@H]1C[C@H](N)[C@H](O)[C@H](C)O1 [DAUNORUBICIN]	0.2
